Give INHIBITION for every item shown.
# Tested on: Plasmodium berghei
# Assay Overview: Screen against P. berghei liver stage (PbLuc), transformed with Luciferase, at 2uM
# Assay type: functional, HepG2
# Condition Description: tested at 2 uM
The whole screen tested about 68,000 compounds, of which about 2,700 (4%) showed an effect of 50% or more. Shown is part of a subset that was picked to be rich in strong results.
One number for each entry, in %.

-- ask Given the entry Cc1cnc(N2CCC3(CCCN3C(=O)c3ccco3)CC2)nc1 , report its measured INHIBITION.
-- reply 26.01

-- ask Given the entry CCCNC(=O)CN1CCOC(c2ccc(Br)cc2)C1 (configuration not stated) , report its measured INHIBITION.
-- reply 15.82

-- ask Given the entry Cc1nc2c(c(N3CCC4(CCCNC4=O)C3)n1)CCC2 (configuration not stated) , report its measured INHIBITION.
-- reply 27.85

For each of the compounds below, state INHIBITION.
1. COc1ccc2c(c1)CN(Cc1nc3c(cnn3C)c(=O)[nH]1)CC2
2. CN(Cc1cnc(N)nc1)C(=O)c1coc(COc2cccc(F)c2)n1
3. COCCN1CCC(CNC(=O)C2(c3cc(C)cc(C)c3)CC2)CC1
4. COCCN1CCC(CNC(=O)C2(c3cccc(Cl)c3)CC2)C1 (configuration not stated)
5. COc1cc(N2CC[C@@H](O)[C@@H]2Cc2cccnc2)ncn1
6. COCCN1CCC(CNC(=O)C2(c3ccc(F)cc3)CCC2)CC1
7. COCCCN(C)Cc1nc2c(cnn2C)c(=O)[nH]1
8. Cn1c(CC(=O)O)c(Sc2ccccc2)c2ccccc21

-- reply
[27.55, 51.31, 39.72, 56.02, 32.21, 66.2, -135.87, 52.89]
